target system: T1, Hmm-hTFRC (REGN2431), monomeric human transferrin receptor ectodomain with N-terminal hexahistidine-myc-myc … (human, UniProt P02786 89-760)
T1 construct: also called hmm.hTfR(C89-F763); His-myc-myc-hTFRC ecto
T1 sequence (P02786 other isoform, or with tags, fused parts or gaps): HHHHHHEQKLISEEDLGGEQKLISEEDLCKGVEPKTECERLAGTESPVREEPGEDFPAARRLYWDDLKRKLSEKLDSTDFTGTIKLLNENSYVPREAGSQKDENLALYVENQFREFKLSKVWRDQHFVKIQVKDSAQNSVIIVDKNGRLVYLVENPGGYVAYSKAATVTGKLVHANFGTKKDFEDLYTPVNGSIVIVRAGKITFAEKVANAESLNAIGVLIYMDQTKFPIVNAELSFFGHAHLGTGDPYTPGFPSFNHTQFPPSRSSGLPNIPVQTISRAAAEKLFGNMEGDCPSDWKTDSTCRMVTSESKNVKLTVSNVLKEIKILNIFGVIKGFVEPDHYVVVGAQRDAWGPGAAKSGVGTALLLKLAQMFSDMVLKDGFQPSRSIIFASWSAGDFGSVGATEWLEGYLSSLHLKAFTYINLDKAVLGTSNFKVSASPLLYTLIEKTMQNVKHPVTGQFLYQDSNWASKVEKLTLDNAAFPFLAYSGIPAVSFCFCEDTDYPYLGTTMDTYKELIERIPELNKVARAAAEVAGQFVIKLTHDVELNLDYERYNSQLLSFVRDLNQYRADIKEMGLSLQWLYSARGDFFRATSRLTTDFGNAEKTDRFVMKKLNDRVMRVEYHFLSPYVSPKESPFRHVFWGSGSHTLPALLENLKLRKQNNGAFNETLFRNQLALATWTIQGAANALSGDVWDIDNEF
test protocol: blocking ELISA, supernatant; Hmm-hTFRC binding to immobilized human holo-Tf
Please assign class 0 whenever % Blocking is at or above 20%, and class 1 whenever it is below.

Query: Just wondering, is % Blocking of 31874B Fab (Fab, V domains shown, CHO supernatant) VH: EVQLVESGGGLVQPGGSLRLSCAASGFAFSSYAMTWVRQAPGKGLEWVSVISGTGGSTYYADSVKGRFTISRDNSKNTLYLQMNSLRAEDTAVYYCAKGGAARRMEYFQYWGQGTLVTVSS VL: DIQMTQSPSSLSASVGDRVTITCRASQGISNYLAWYQQKPGKVPNLLIYAASTLQSGVPSRFSGSGSGTDFTLTISSLQPEDVATYYCQKYNSAPLTFGGGTKVEIKR below 20%?
Reply: class 1

Query: Another binder to look at: 12802B scFv (VK-VH) (scFv, CHO supernatant; Vk-3xG4S-Vh) scFv: EIVMTQSPATLSVSPGERATLSCRASQSVSINLAWYQQKPGQAPRLLIFVASTRATGIPARFSGSGSGTEFTLTISSLQSEDFATYYCQQYDIWPYTFGQGTKLEIKGGGGSGGGGSGGGGSQVQLVESGGGLVKPGGSLRLSCAASGFTFSDYFMSWIRQAPGKGLEWVSYISSTGSTINYADSVKGRFTISRDNVKNSLYLQMTSLRVEDTAVYYCTRDNWNYEYWGQGTLVTVSS
Reply: class 1

Query: Another binder to look at: 69307 Fab (Fab, V domains shown, CHO supernatant) VH: EVQLVESGGGLVQPGGSLRLSCTASGFTFSNYWMTWVRQAPGKGLEWVANIKEDGSEKEYVDSVKGRFTISRDNAKNSLYLQMNSLRGEDTAVYYCARDGEQLVDYYYYYVMDVWGQGTTVTVSS VL: DIQMTQSPSSVSASVGDRVTITCRASQGISSWLAWYQQKPGKAPKLLIYAASSLQSGVPSRFSGSGSGTDFTLTISSLQPEDFATYYCQKADSLPYAFGQGTKLEIKR
Reply: class 1

Query: Another binder to look at: 12795B scFv (VH-VK) (scFv) EVQLVESGGGLVQPGGSLRLSCATSGFTFTSYDMKWVRQAPGLGLEWVSAISGSGGNTYYADSVKGRFTISRDNSRNTLYLQMNSLRAEDTAVYYCTRSHDFGAFDYFDYWGQGTLVTVSSDIQMTQSPSSLSASVGDRVTITCRASQGIRDHFGWYQQKPGKAPKRLIYAASSLHSGVPSRFSGSGSGTEFTLTISSLQPEDFATYYCLQYDTYPLTFGGGTKVEIK
Reply: class 0

Query: Another binder to look at: 31863B scFv (VK-VH) (scFv, CHO supernatant; Vk-3xG4S-Vh) scFv: DIQMTQSPSSLSASIGDRVTITCRASQGISNYLAWYQQKPGKVPKLLIYAASTLQSGVPSRFSGSGSGTDFTLTISSLQPEDVATYYCQNHNSVPLTFGGGTKVEIKGGGGSGGGGSGGGGSEVQLVESGGGLVQPGGSLRLSCAASGFTFNSYAMTWVRQAPGKGLEWVSFIGGSTGNTYYAGSVKGRFTISSDNSKKTLYLQMNSLRAEDTAVYYCAKGGAARRMEYFQHWGQGTLVTVSS
Reply: class 1

***
Query: Just wondering, is % Blocking of 12801B scFv (VH-VK) (scFv) EVQLLESGGALVQPGGSLRLSCAASGFTFTSYAMHWVRQAPGKGLEWVSSIRGSGGGTYSADSVKGRFTISRDNSRDTLYLQMNSVRAEDTAVYYCARSHDYGAFDFFDYWGQGTLVTVSSDIQMTQSPSSLSASVGDRVTITCRASQGIRTDLGWYQQKPGKAPKRLIYAASSLQSGVPSRFSGSGSGTEFTLTISSLRPEDFATFYCLQYNSYPLTFGGGTKVEIK below 20%?
Reply: class 0

Query: Another binder to look at: 31863B scFv (VH-VK) (scFv) EVQLVESGGGLVQPGGSLRLSCAASGFTFNSYAMTWVRQAPGKGLEWVSFIGGSTGNTYYAGSVKGRFTISSDNSKKTLYLQMNSLRAEDTAVYYCAKGGAARRMEYFQHWGQGTLVTVSSDIQMTQSPSSLSASIGDRVTITCRASQGISNYLAWYQQKPGKVPKLLIYAASTLQSGVPSRFSGSGSGTDFTLTISSLQPEDVATYYCQNHNSVPLTFGGGTKVEIK
Reply: class 1

Query: Another binder to look at: 69348 Fab (Fab, V domains shown, CHO supernatant) VH: QVQLVESGGGVVQPGRSLRLSCAASGFTFTTYGMHWVRQAPGKGLEWVAVIWYDGSNKYYGDSVKGRFTISRDNSKNTLYLQMNSLRVDDTAVYYCTRTHGYTRSSDGFDYWGQGTLVTVSS VL: DIQMTQSPSSLSASVGDRVTITCRASQSIRNVLGWFQQKPGKAPQRLIYAASSLQSGVPSRFSGSGSGTEFTLTISSLQPEDFATYYCLQHNFYPLTFGGGTKVEIKR
Reply: class 0

Query: Another binder to look at: 69326 Fab (Fab, V domains shown, CHO supernatant) VH: EVQLVESGGGLVQPGGSLRLSCAVSGFIFSSYEMNWVRQAPGKGLEWVSYISSSGSTIFYADSVKGRFTISRDNAKNSLYLQMNSLRAEDTAVYYCVSGVVLFDVWGQGTMVTVSS VL: EIVMTQSPATLSVSPGERATLSCRASQSVSSNFAWYQQKPGQAPRLLIYSASSRATGIPVRFSGSGSGTEFTLTISSLQSEDFAVYYCQQYNIWPRTFGQGTKVEIKR
Reply: class 1

Query: Another binder to look at: 69329 Fab (Fab, V domains shown, CHO supernatant) VH: EVQLVESGGGLVQPGGSLRLSCAASGFTFSNYWMTWVRQAPGKGLEWVANIKEDGSEKDYVDSVKGRFTISRDNAKNSLYLQMNSLRGEDTAVYYCARDGEQLVDYYYYYVMDVWGQGTTVTVSS VL: DIQMTQSPSSVSASVGDRVTITCRASQGISSWLAWYQQKPGKAPKLLIYAASSLQSGVPSRFSGSGSGTDFTLTISSLQPEDFATYYCQKANSFPYTFGQGTKLEIKR
Reply: class 1
